# MEASUREMENT_TARGET: T1, human ASIC1 (human, UniProt P78348 1-528)
# T1 construct: Ion channel subunit expressed on 3T3 (3T3/hASIC1) or HEK293 cells (HEK/hASIC1; HEK293 CL:1F10 transient); also called hASIC1; human ASIC1a
# T1 sequence: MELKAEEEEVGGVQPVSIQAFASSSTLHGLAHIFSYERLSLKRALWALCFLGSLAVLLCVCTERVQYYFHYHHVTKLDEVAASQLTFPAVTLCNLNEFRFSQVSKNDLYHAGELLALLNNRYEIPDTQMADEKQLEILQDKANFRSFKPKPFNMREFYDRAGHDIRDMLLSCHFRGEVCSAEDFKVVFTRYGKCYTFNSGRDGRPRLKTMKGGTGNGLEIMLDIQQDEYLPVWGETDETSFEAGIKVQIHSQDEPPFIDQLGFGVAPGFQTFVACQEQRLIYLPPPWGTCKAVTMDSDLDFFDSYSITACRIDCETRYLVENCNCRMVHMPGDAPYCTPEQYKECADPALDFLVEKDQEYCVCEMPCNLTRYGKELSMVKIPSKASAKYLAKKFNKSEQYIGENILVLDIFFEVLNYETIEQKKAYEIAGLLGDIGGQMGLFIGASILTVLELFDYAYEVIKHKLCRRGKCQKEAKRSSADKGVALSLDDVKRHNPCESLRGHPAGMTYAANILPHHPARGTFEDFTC
# ASSAY_PROTOCOL: FACS titration, 3T3/hASIC1 cells
MEASUREMENT_KIND: pEC50
A value of pEC50 is the negative decimal logarithm of a concentration given in moles per litre.

H2M7103N (antibody, V domains shown, Chimeric: human variable, mouse constant domains; Fc isotype not spelled out; also called H2bM7103N) VH: EVQLVESGGGLVQPGGSLKLSCAASGFTFSSFWMSWVRQAPGKGLEWVANIKQNGSETYYVDSVKGRFTISRDNTKNSLYLQMNSLRAEDTAIYYCARGGRIQLWSSWFDPWGQGTLVTVSS VL: DIQMTQSPSSLSASVGDRVTITCRASQSIKNYLNWYQQKSGKAPKLLIYAASSLQSGVPSRVSGSGSGTDFTLTISSLHPEDFAAYYCQQSFSAPLTFGGGTKVEIK	8.77
H3M6760N (antibody, V domains shown, Chimeric: human variable, mouse constant domains; H3M prefix marks the Fc, isotype not spelled out) VH: EDRVLESGGGLVQPGGSLRLSCAASGFMFSSYAMSWVRQAPGKGLEWVSLISGRDGNTYYADSVKGRFTISRDNSRNTLYLQLNSLRAEDTAVYYCAKDTAVVPGYGMDVWGQGTTVTVSS VL: DIQMTQSPSTLSASVGDRVTITCRASQSISNWLAWYQQRPGKAPKLLIYKASSLESGVPSRFSGSGSGTEFTLTISSLQPDDFASYYCQQYNSYSWTFGQGTKVEIK	9.07
H3M6715N (antibody, V domains shown, Chimeric: human variable, mouse constant domains; H3M prefix marks the Fc, isotype not spelled out) VH: EELVLESGGGLVQPGGSLRLSCAASGFMFSTYAMSWVRQAPGKGLEWVSLISGRDGNTYYADSVKGRFTISRDNSRNTLYLQLNSLRAEDTALYYCAKDTAVVPGYGMDVWGQGTTVTVSS VL: DIQMTQSPATLSASVGDRVTITCRASQTISNWLAWYQQRPGKAPKLLIYKASSLETGVPSRFSGSGSGTEFTLTISSLQPDDFASYYCQQYNSYSWTFGQGTKVEIK	10.14

Query: Recorded pEC50 for H1M7101N (antibody, mouse IgG1, V domains shown) VH: EVQLLASGGGLVQTGGSLRLSCAASGFTFSSFAMSWVRQAPGKGLEWVSGISGSGGSTYYADSVKGRFTISRDNSKNTLYLQMNSLRAEDTAAYYCAKEAYKWQPWGQGIRVTVSS VL: DIQMTQSPSTLSASVGDRVTITCRASQSISSWLAWYQQKPGKAPNLLIYKTSNLESGVPSRFSGSGSGTEFTLTISSLQPDDFATYYCQQYNSYSYTFGQGTKLEIK , please?
Reply: 9.14

Query: Now the binder H1M6718N (antibody, mouse IgG1, V domains shown) VH: EVQLLESGGGLVQPGGSLRLSCAASGFTFSSFAMSWVRQAPGKGLEWVSGISGSGGGTHYADSVKGRFTISRDNSKNMVYLQMNSLRAEDTAAYYCAKEAYKWQPWGQGTLVTVSS VL: DIQMTQSPSTLSASVGDRVIITCRASQRISSWLAWYQQKPGKAPNLLIYKASILESGVPSRFSGSGSGTEFTLTISSLQPDDFATYYCQQYNSYSYTFGQGTKLEIK
Reply: 9.26
